Molecular target: T1, human CD16a V176 variant, biotinylated (human, UniProt P08637 17-208, N-terminally biotinylated in-house)
T1 construct: supplier is told for the AlphaScreen assay only; also called V Variant; FcγRIIIA V variant
T1 sequence (P08637 other isoform, or with tags, fused parts or gaps mutant limits assumed): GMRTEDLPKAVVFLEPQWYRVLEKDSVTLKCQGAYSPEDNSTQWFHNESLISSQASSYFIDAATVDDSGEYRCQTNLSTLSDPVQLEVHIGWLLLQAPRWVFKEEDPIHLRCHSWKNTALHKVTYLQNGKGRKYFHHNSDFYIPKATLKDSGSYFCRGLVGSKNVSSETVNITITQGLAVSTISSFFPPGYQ
Test: AlphaScreen competition vs mouse IgG2a
Numbered stars: 1 amine (or outer) side, 2 acyl side, 3 side chain; on linkers, the order of the positions; unused ones are H or OH. Bridge positions count the residues as written; N and C are the ends. Ends that are not written are not given here. * marks the point of attachment. TBMT = 2,4,6-tris(bromomethyl)-s-triazine, C(c1nc(C[*:2])nc(C[*:3])n1)[*:1]; TATA = O=C(CC[*:1])N1CN(C(=O)CC[*:2])CN(C(=O)CC[*:3])C1; Pent4ynoyl = C#CCCC(=O)*
measurementType: pIC50
// pIC50 here means minus log10 of the molar concentration (mol/L)

// worked examples, pIC50 included
| binder | pIC50 |
| --- | --- |
| ACPPTVYCHPLDCAK (C-terminal Lys(PYA), scaffold TATA) [BCY15685] | 5.46 |
| ACRWSVEDPCGAWCAK(Pent4ynoyl)-NH2 (linker 2-10-14 via TBMT (inferred), scaffold TBMT) [BCY13883] | 5.60 |

I'd like to know its pIC50. The binder in question is ACVGLEELGPCSDLCAK(Pent4ynoyl)-NH2 (linker 2-11-15 via TBMT (inferred), scaffold TBMT) [BCY13886]
5.50

I'd like to know its pIC50. The binder in question is ACPPTVYCHPLDCAK-NH2 (linker 2-8-13 via TATA (inferred); not fully specified (residue 15); also: homodimer via shared N-(amine-PEG2)-N-bis(PEG3-azide) linker, homodimer of BCY15685; scaffold TATA; also called CD16a fluorescent dimer) [BCY15915]
7.49

I'd like to know its pIC50. The binder in question is ACRWSVEDPCGAWCAK-NH2 (linker 2-10-14 via TBMT (inferred); not fully specified (residue 16); also: homodimer via shared N-(amine-PEG2)-N-bis(PEG3-azide) linker, homodimer of BCY13883; scaffold TBMT; also called CD16a fluorescent dimer) [BCY15914]
6.51

I'd like to know its pIC50. The binder in question is ACVGLEELGPCSDLCAK-NH2 (linker 2-11-15 via TBMT (inferred); not fully specified (residue 17); also: homodimer via shared N-(amine-PEG2)-N-bis(PEG3-azide) linker, homodimer of BCY13886; scaffold TBMT; also called CD16a fluorescent dimer) [BCY15916]
6.95
